Numbers sourced from ChEMBL document CHEMBL5537113.

system: Escherichia coli; assay: Antibacterial activity against Escherichia coli harboring tolC deletion mutant assessed as reduction in microbial growth incubated for 16 hrs by serial dilution method; type: functional
Recorded measurements of MIC, one per entry

Below, each entry is followed by its recorded MIC result.
Exercise: Dear colleague, I am looking for the recorded MIC of the following compound: O=C(Nc1nccs1)C1CN(c2cccc(Cl)c2)N(c2cccc(Cl)c2)C1=O (centres undefined)
Key: > 40 µM

Exercise: Dear colleague, I am looking for the recorded MIC of the following compound: CN1C(=O)C(C(=O)Nc2ncc(C#N)s2)CN1c1cccc(Cl)c1 (centres undefined)
Key: > 40 µM

Exercise: Dear colleague, I am looking for the recorded MIC of the following compound: N#Cc1cnc(NC(=O)C2CN(c3cccc(Cl)c3)N(c3cccc(Cl)c3)C2=O)s1 (centres undefined)
Key: 10 µM

---
Exercise: Dear colleague, I am looking for the recorded MIC of the following compound: O=C(Nc1cccc(-c2cn[nH]c2)c1)C1CN(c2cccc(Cl)c2)N(c2cccc(Cl)c2)C1=O (centres undefined)
Key: > 40 µM

Exercise: Dear colleague, I am looking for the recorded MIC of the following compound: O=C(Nc1ncc([N+](=O)[O-])s1)C1CN(c2cccc(Cl)c2)N(c2cccc(Cl)c2)C1=O (centres undefined)
Key: > 40 µM

Exercise: Dear colleague, I am looking for the recorded MIC of the following compound: O=C(Nc1nc2ccccc2s1)C1CN(c2cccc(Cl)c2)N(c2cccc(Cl)c2)C1=O (centres undefined)
Key: > 40 µM

Exercise: Dear colleague, I am looking for the recorded MIC of the following compound: O=C(Nc1ccc2ncsc2c1)C1CN(c2cccc(Cl)c2)N(c2cccc(Cl)c2)C1=O (centres undefined)
Key: > 40 µM

Exercise: Dear colleague, I am looking for the recorded MIC of the following compound: O=C(Nc1cccnc1)C1CN(c2cccc(Cl)c2)N(c2cccc(Cl)c2)C1=O (centres undefined)
Key: 38 µM

---

Recorded measurements of pIC50, one per entry
molecular target: UDP-N-acetylglucosamine 1-carboxyvinyltransferase (Escherichia coli K-12, UniProt P0A749); assay: Inhibition of Escherichia coli K12 His-tagged MurA expressed in Escherichia coli BL21 cells using UNAG as substrate pre incubated for 15 mins followed by substrate addition and measured after 15 mins by microplate reader analysis
Sequence (P0A749 whole entry): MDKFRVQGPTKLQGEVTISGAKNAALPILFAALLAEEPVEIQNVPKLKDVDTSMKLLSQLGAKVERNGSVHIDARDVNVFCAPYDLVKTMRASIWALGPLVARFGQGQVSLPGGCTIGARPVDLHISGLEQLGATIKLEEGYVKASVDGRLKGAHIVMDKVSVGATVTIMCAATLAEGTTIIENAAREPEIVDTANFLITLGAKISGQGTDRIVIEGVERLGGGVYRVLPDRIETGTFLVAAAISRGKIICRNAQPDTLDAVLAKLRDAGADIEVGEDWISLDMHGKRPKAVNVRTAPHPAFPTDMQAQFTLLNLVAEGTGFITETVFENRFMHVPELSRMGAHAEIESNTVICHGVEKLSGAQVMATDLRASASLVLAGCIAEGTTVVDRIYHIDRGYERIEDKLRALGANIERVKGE
pIC50 (log units): -log10 of the concentration in mol/L.

Exercise: Dear colleague, I am looking for the recorded pIC50 of the following compound: O=C(Nc1cccc(-c2cn[nH]c2)c1)C1CN(c2cccc(Cl)c2)N(c2cccc(Cl)c2)C1=O (stereo unspecified)
Key: 4.51

Exercise: Dear colleague, I am looking for the recorded pIC50 of the following compound: O=C(Nc1ncc(Cl)s1)C1CN(c2cccc(Cl)c2)N(c2cccc(Cl)c2)C1=O (stereo unspecified)
Key: 4.62

Exercise: Dear colleague, I am looking for the recorded pIC50 of the following compound: C[C@@H]1O[C@@H]1P(=O)(O)O [FOSFOMYCIN]
Key: 5.17

With those in mind, consider the next compound.
Exercise: Dear colleague, I am looking for the recorded pIC50 of the following compound: O=C(Nc1ccc(-c2cn[nH]c2)cc1)C1CN(c2cccc(Cl)c2)N(c2cccc(Cl)c2)C1=O (stereo unspecified)
Key: 4.91

---

test system: Bacteroides fragilis; test: Antibacterial activity against Bacteroides fragilis HM 20 assessed as reduction in microbial growth incubated for 48 hrs by broth microdilution method; format: functional
Measurement name: MIC (µg/mL)
All answers are understood in µg/mL, so give the number only.

Exercise: Dear colleague, I am looking for the recorded MIC of the following compound: O=C(Nc1ncc([N+](=O)[O-])s1)C1CN(c2ccc(Cl)cc2)N(c2ccc(Cl)cc2)C1=O (centres undefined)
Key: 8

Exercise: Dear colleague, I am looking for the recorded MIC of the following compound: CN[C@H](CC(C)C)C(=O)N[C@H]1C(=O)N[C@@H](CC(N)=O)C(=O)N[C@H]2C(=O)N[C@H]3C(=O)N[C@H](C(=O)N[C@H](C(=O)O)c4cc(O)cc(O)c4-c4cc3ccc4O)[C@H](O)c3ccc(c(Cl)c3)Oc3cc2cc(c3O[C@@H]2O[C@H](CO)[C@@H](O)[C@H](O)[C@H]2O[C@H]2C[C@](C)(N)[C@H](O)[C@H](C)O2)Oc2ccc(cc2Cl)[C@H]1O
Key: 64

With those in mind, consider the next compound.
Exercise: Dear colleague, I am looking for the recorded MIC of the following compound: O=C(Nc1ncc([N+](=O)[O-])s1)C1CN(c2cccc(Cl)c2)N(c2cccc(Cl)c2)C1=O (centres undefined)
Key: 4
